test: Absorbance and fluorescence emission spectra (SpectraMax M2); type: physicochemical; settings: MKAC compound library; absorbance maximum
value-kind: λmax Abs. (nm)

- compound: "CC(=O)Nc1ccc(C2=C3C=CC(N(C)Cc4ccccc4)=[N+]3[B-](F)(F)n3c2ccc3-n2cc(CN(C)Cc3ccccc3)nn2)cc1"
  λmax Abs. (nm): 465
- compound: "CCCCCC(O)c1cn(-c2ccc3n2[B-](F)(F)[N+]2=C(N4CCc5ccccc5C4)C=CC2=C3c2ccc(NC(C)=O)cc2)nn1 (stereo not drawn)"
  λmax Abs. (nm): 469
- compound: "CC(=O)Nc1ccc(C2=C3C=CC(NCc4ccccc4C)=[N+]3[B-](F)(F)n3c2ccc3-n2cc(CC(C)C)nn2)cc1"
  λmax Abs. (nm): 465

====

experiment: Quantum yield measurements versus Acridine Yellow in EtOH; assay type: physicochemical; settings: MKCA compound library; quantum yield
value-kind: φ (%)

Check out these entries, answers already filled in.
- molecule: "CCCC(C)c1cn(-c2ccc3n2[B-](F)(F)[N+]2=C(N4CCCC4)C=CC2=C3c2ccc(NC(=O)CCl)cc2)nn1 (stereo not shown)"
  unit-abbreviation: "%"
  reported-measurement: 3.99
- molecule: "CCCCCC(O)c1cn(-c2ccc3n2[B-](F)(F)[N+]2=C(N4CCc5ccccc5C4)C=CC2=C3c2ccc(NC(=O)CCl)cc2)nn1 (stereo not shown)"
  unit-abbreviation: "%"
  reported-measurement: 3.38
- molecule: "CN(Cc1ccccc1)Cc1cn(-c2ccc3n2[B-](F)(F)[N+]2=C(N4CCCC4)C=CC2=C3c2ccc(NC(=O)CCl)cc2)nn1"
  unit-abbreviation: "%"
  reported-measurement: 2.62
- molecule: "CCCCCC(O)c1cn(-c2ccc3n2[B-](F)(F)[N+]2=C(NCc4ccccc4C)C=CC2=C3c2ccc(NC(=O)CCl)cc2)nn1 (stereo not shown)"
  unit-abbreviation: "%"
  reported-measurement: 21.93
- molecule: "CCCC(C)c1cn(-c2ccc3n2[B-](F)(F)[N+]2=C(NCc4ccccc4C)C=CC2=C3c2ccc(NC(=O)CCl)cc2)nn1 (stereo not shown)"
  unit-abbreviation: "%"
  reported-measurement: 31.22
- molecule: "CN(Cc1ccccc1)Cc1cn(-c2ccc3n2[B-](F)(F)[N+]2=C(N4CCc5ccccc5C4)C=CC2=C3c2ccc(NC(=O)CCl)cc2)nn1"
  unit-abbreviation: "%"
  reported-measurement: 2.33
- molecule: "COc1ccc(OC)c(CNC2=[N+]3C(=C(c4ccc(NC(=O)CCl)cc4)c4ccc(-n5cc(CC(C)C)nn5)n4[B-]3(F)F)C=C2)c1"
  unit-abbreviation: "%"
  reported-measurement: 21.21
- molecule: "CCOc1ccccc1CNC1=[N+]2C(=C(c3ccc(NC(=O)CCl)cc3)c3ccc(-n4cc(CC(C)C)nn4)n3[B-]2(F)F)C=C1"
  unit-abbreviation: "%"
  reported-measurement: 33.76
- molecule: "CCCCCC(O)c1cn(-c2ccc3n2[B-](F)(F)[N+]2=C(N4CC(C)OC(C)C4)C=CC2=C3c2ccc(NC(=O)CCl)cc2)nn1 (stereo not shown)"
  unit-abbreviation: "%"
  reported-measurement: 3.23

[I] CC1CN(C2=[N+]3C(=C(c4ccc(NC(=O)CCl)cc4)c4ccc(-n5cc(C6CC6)nn5)n4[B-]3(F)F)C=C2)CC(C)O1 (stereo not shown)
[II] CN(Cc1ccccc1)Cc1cn(-c2ccc3n2[B-](F)(F)[N+]2=C(N(C)Cc4ccccc4)C=CC2=C3c2ccc(NC(=O)CCl)cc2)nn1
[III] CN(Cc1ccccc1)Cc1cn(-c2ccc3n2[B-](F)(F)[N+]2=C(NCc4cc(F)cc(F)c4)C=CC2=C3c2ccc(NC(=O)CCl)cc2)nn1
[IV] CCCC(C)c1cn(-c2ccc3n2[B-](F)(F)[N+]2=C(NCc4cc(F)cc(F)c4)C=CC2=C3c2ccc(NC(=O)CCl)cc2)nn1 (stereo not shown)
// query Rank ascending by φ (%). Give me the labels in the order the question wants.
// result II, I, III, IV
(II: 3.03%, I: 6.11%, III: 26.25%, IV: 41.81%)

====

Assay: Quantum yield measurements versus Acridine Yellow in EtOH
Assay type: physicochemical
Settings: MKAC compound library; quantum yield
Experimental: ^1H-NMR, ^19F-NMR and ^13C-NMR spectra were recorded on Bruker ACF300 (300 MHz), DPX300 (300 MHz) and AMX500 (500 MHz) spectrometers. High resolution mass spectra (ESI) were obtained on a Finnigan/MAT 95XL-T spectrometer. Spectroscopic and quantum yield data were measured on a SpectraMax M2 spectrophotometer (Molecular Devices). Data analysis was performed using GraphPrism 5.0. […]
value-kind: φ (%)

[I] CCCCCC(O)c1cn(-c2ccc3n2[B-](F)(F)[N+]2=C(NCc4cc(F)cc(F)c4)C=CC2=C3c2ccc(NC(C)=O)cc2)nn1 (stereo not drawn)
[II] CC(=O)Nc1ccc(C2=C3C=CC(N4CCc5ccccc5C4)=[N+]3[B-](F)(F)n3c2ccc3-n2cc(C3CC3)nn2)cc1
// query Endpoint returns whichever of I and II has the numerically higher φ (%). Select an item and report its label.
// result I
(I: 17.68%, II: 2.56%)

====

assay: Absorbance and fluorescence emission spectra (SpectraMax M2); format: physicochemical; details: MKAC compound library; absorbance maximum
value-kind: λmax Abs. (nm)

- molecule: "CC(=O)Nc1ccc(C2=C3C=CC(N4CCc5ccccc5C4)=[N+]3[B-](F)(F)n3c2ccc3-n2cc(CC(C)C)nn2)cc1 [MKAC66-43]"
  reported-measurement: 469
- molecule: "CCCCCC(O)c1cn(-c2ccc3n2[B-](F)(F)[N+]2=C(NCc4ccccc4OCC)C=CC2=C3c2ccc(NC(C)=O)cc2)nn1 (stereo not drawn) [MKAC103-69]"
  reported-measurement: 465
- molecule: "CC(=O)Nc1ccc(C2=C3C=CC(NCc4cc(F)cc(F)c4)=[N+]3[B-](F)(F)n3c2ccc3-n2cc(CC3CCCCC3)nn2)cc1 [MKAC412-8]"
  reported-measurement: 467
- molecule: "COc1ccc(OC)c(CNC2=[N+]3C(=C(c4ccc(NC(C)=O)cc4)c4ccc(-n5cc(CC6CCCCC6)nn5)n4[B-]3(F)F)C=C2)c1 [MKAC181-8]"
  reported-measurement: 465
- molecule: "CC(=O)Nc1ccc(C2=C3C=CC(NCc4ccccc4C)=[N+]3[B-](F)(F)n3c2ccc3-n2cc(CO)nn2)cc1 [MKAC101-70]"
  reported-measurement: 465
- molecule: "CCOc1ccccc1CNC1=[N+]2C(=C(c3ccc(NC(C)=O)cc3)c3ccc(-n4cc(CC5CCCCC5)nn4)n3[B-]2(F)F)C=C1 [MKAC103-8]"
  reported-measurement: 465

====

assay: Absorbance and fluorescence emission spectra (SpectraMax M2); format: physicochemical; settings: BDC library, Table 2
value-kind: λmax Absorp. (nm)

- molecule: "Nc1ccc(C2=C3C=CC(N4CCCCC4)=[N+]3[B-](F)(F)n3c2ccc3-n2cc(COc3ccccc3)nn2)cc1 [BDC-17]"
  λmax Absorp. (nm): 474
- molecule: "CCCCCCc1cn(-c2ccc3n2[B-](F)(F)[N+]2=C(N4CCCCC4)C=CC2=C3c2ccc(N)cc2)nn1 [BDC-47]"
  λmax Absorp. (nm): 473
- molecule: "CCCCc1ccc(-c2cn(-c3ccc4n3[B-](F)(F)[N+]3=C(N5CCCCC5)C=CC3=C4c3ccc(N)cc3)nn2)cc1 [BDC-12]"
  λmax Absorp. (nm): 473
- molecule: "CCCCCCCc1cn(-c2ccc3n2[B-](F)(F)[N+]2=C(N4CCCCC4)C=CC2=C3c2ccc(N)cc2)nn1 [BDC-50]"
  λmax Absorp. (nm): 475
- molecule: "CC(C)(C)c1ccc(-c2cn(-c3ccc4n3[B-](F)(F)[N+]3=C(N5CCCCC5)C=CC3=C4c3ccc(N)cc3)nn2)cc1 [BDC-11]"
  λmax Absorp. (nm): 471
- molecule: "Nc1ccc(C2=C3C=CC(N4CCCCC4)=[N+]3[B-](F)(F)n3c2ccc3-n2cc(-c3ccc(F)c(F)c3)nn2)cc1 [BDC-16]"
  λmax Absorp. (nm): 471
- molecule: "CN(C)Cc1cn(-c2ccc3n2[B-](F)(F)[N+]2=C(N4CCCCC4)C=CC2=C3c2ccc(N)cc2)nn1 [BDC-2]"
  λmax Absorp. (nm): 469
- molecule: "COc1cc(OC)cc(-c2cn(-c3ccc4n3[B-](F)(F)[N+]3=C(N5CCCCC5)C=CC3=C4c3ccc(N)cc3)nn2)c1 [BDC-14]"
  λmax Absorp. (nm): 473
- molecule: "Nc1ccc(C2=C3C=CC(N4CCCCC4)=[N+]3[B-](F)(F)n3c2ccc3-n2cc(-c3ccccc3)nn2)cc1 [BDC-9]"
  λmax Absorp. (nm): 472
- molecule: "CCCCCc1ccc(-c2cn(-c3ccc4n3[B-](F)(F)[N+]3=C(N5CCCCC5)C=CC3=C4c3ccc(N)cc3)nn2)cc1 [BDC-29]"
  λmax Absorp. (nm): 471
- molecule: "CCCCCC(O)c1cn(-c2ccc3n2[B-](F)(F)[N+]2=C(N4CCCCC4)C=CC2=C3c2ccc(N)cc2)nn1 (stereo not drawn) [BDC-69]"
  λmax Absorp. (nm): 476
- molecule: "Nc1ccc(C2=C3C=CC(N4CCCCC4)=[N+]3[B-](F)(F)n3c2ccc3-n2cc(-c3ccc(-c4ccccc4)cc3)nn2)cc1 [BDC-23]"
  λmax Absorp. (nm): 472
